Counter-ions that a name gives are not always drawn.
experimental_endpoint: IC50 (nM)
The response must be a number in nM with no trailing unit.

Result for NC[C@H]1CC[C@H](C(=O)N[C@@H](Cc2cccc(-c3ccc(C(=O)N4CCOCC4)cc3)c2)C(=O)Nc2ccc(-c3nnc(Cl)[nH]3)cc2)CC1 [Example 26, hydrochloride] , tested on human factor XIa (Homo sapiens, UniProt P03951), IC50: 4.5

Result for Cc1ccc(S(=O)(=O)NCc2ccccc2)cc1-c1cccc(C[C@H](NC(=O)[C@H]2CC[C@H](CN)CC2)C(=O)Nc2ccc(-c3noc(=O)[nH]3)cc2)c1 [Example 60, hydrochloride] , tested on human factor XIa (Homo sapiens, UniProt P03951), IC50: 1.4

Result for Cc1ccc(S(=O)(=O)N2CCCC2)cc1-c1cccc(C[C@H](NC(=O)[C@H]2CC[C@H](CN)CC2)C(=O)Nc2ccc(-c3noc(=O)[nH]3)cc2)c1 [Example 36, hydrochloride] , tested on human factor XIa (Homo sapiens, UniProt P03951), IC50: 2.2

###

test system: human and animal plasma; experiment: Determination of anticoagulatory activity: activated partial thromboplastin time (aPTT) in plasma; settings: concentration of test substance which brings about a 1.5-fold extension of the aPTT; plasma in vitro, C.K. Prest kit
Where a name gives a salt, the structure may show the parent alone.
Threshold check on aPTT: at or above 0.3 µmol/L gives 1.0, strictly below gives 0.0.

Request: API: above_or_equal(metric=aPTT, cutoff=0.3 µmol/L) for item CN(C)CCCOc1ccc(-c2cccc(C[C@H](NC(=O)[C@H]3CC[C@H](CN)CC3)C(=O)Nc3ccc4[nH]c(=O)[nH]c4c3)c2)cn1 [Example 100, hydrochloride]
Result: 1.0

Request: API: above_or_equal(metric=aPTT, cutoff=0.3 µmol/L) for item Cc1cc(C(=O)NC2CCC(N(C)C)CC2)ccc1-c1cccc(C[C@H](NC(=O)[C@H]2CC[C@H](CN)CC2)C(=O)Nc2ccc(-c3nnn[nH]3)c(F)c2)c1 (some centres unmarked) [Example 64, hydrochloride]
Result: 0.0

Request: API: above_or_equal(metric=aPTT, cutoff=0.3 µmol/L) for item CN(C)C(=O)c1cccc(-c2cccc(C[C@H](NC(=O)[C@H]3CC[C@H](CN)CC3)C(=O)Nc3ccc(-c4nnn[nH]4)cc3)c2)c1 [Example 43, hydrochloride]
Result: 0.0

Request: API: above_or_equal(metric=aPTT, cutoff=0.3 µmol/L) for item Cc1ccc(C[C@H](NC(=O)[C@H]2CC[C@H](CN)CC2)C(=O)Nc2ccc(-c3nnn[nH]3)cc2)cc1-c1ccc(C(=O)NC2CCNCC2)cc1 [Example 49, hydrochloride]
Result: 1.0

Request: API: above_or_equal(metric=aPTT, cutoff=0.3 µmol/L) for item Cc1ccc2[nH]ncc2c1-c1cccc(C[C@H](NC(=O)[C@H]2CC[C@H](CN)CC2)C(=O)Nc2ccc(-c3noc(=O)[nH]3)cc2)c1 [Example 87, hydrochloride]
Result: 1.0

Request: API: above_or_equal(metric=aPTT, cutoff=0.3 µmol/L) for item CN1CCN(c2ncc(-c3cccc(C[C@H](NC(=O)[C@H]4CC[C@H](CN)CC4)C(=O)Nc4ccc(-c5nnc(Cl)[nH]5)cc4)c3)cn2)CC1 [Example 91, hydrochloride]
Result: 0.0

Request: API: above_or_equal(metric=aPTT, cutoff=0.3 µmol/L) for item NC[C@H]1CC[C@H](C(=O)N[C@@H](Cc2cccc(-c3cnc(N)nc3)c2)C(=O)Nc2ccc(-c3nnn[nH]3)cc2)CC1 [Example 79, hydrochloride]
Result: 0.0

Request: API: above_or_equal(metric=aPTT, cutoff=0.3 µmol/L) for item NC[C@H]1CC[C@H](C(=O)N[C@@H](Cc2cccc(-c3cnc(N4CCOCC4)nc3)c2)C(=O)Nc2ccc(-c3nnc(Cl)[nH]3)cc2)CC1 [Example 92, hydrochloride]
Result: 1.0

Request: API: above_or_equal(metric=aPTT, cutoff=0.3 µmol/L) for item NC[C@H]1CC[C@H](C(=O)N[C@@H](Cc2cccc(-c3cnc(N4CCNCC4)nc3)c2)C(=O)Nc2ccc(-c3nnn[nH]3)cc2)CC1 [Example 68, hydrochloride]
Result: 0.0

Request: API: above_or_equal(metric=aPTT, cutoff=0.3 µmol/L) for item CN(C)CCCOc1ccc(-c2cccc(C[C@H](NC(=O)[C@H]3CC[C@H](CN)CC3)C(=O)Nc3ccc(-c4nnc(C(F)(F)F)[nH]4)cc3)c2)cn1 [Example 101, hydrochloride]
Result: 1.0

Request: API: above_or_equal(metric=aPTT, cutoff=0.3 µmol/L) for item NC[C@H]1CC[C@H](C(=O)N[C@@H](Cc2cccc(-c3ccc(C(=O)N4CCN(CCO)CC4)cc3)c2)C(=O)Nc2ccc(-c3nnn[nH]3)cc2)CC1 [Example 48, hydrochloride]
Result: 1.0

Request: API: above_or_equal(metric=aPTT, cutoff=0.3 µmol/L) for item CC(C)N1CCC(NC(=O)c2cccc(-c3cccc(C[C@H](NC(=O)[C@H]4CC[C@H](CN)CC4)C(=O)Nc4ccc(-c5nnn[nH]5)cc4)c3)c2)CC1 [Example 32, hydrochloride]
Result: 0.0

Request: API: above_or_equal(metric=aPTT, cutoff=0.3 µmol/L) for item Cc1cc(S(=O)(=O)N(C)C)ccc1-c1cccc(C[C@H](NC(=O)[C@H]2CC[C@H](CN)CC2)C(=O)Nc2ccc(-c3nnn[nH]3)cc2)c1 [Example 7, hydrochloride]
Result: 1.0
